Assay: folding stability dG unfold from trypsin proteolysis; higher = more stable
measured endpoint: folding stability dG unfold
Answer with the figure and its unit, nothing else.

Consider the reported folding stability dG unfold for these sequences:
INSERT INTO assay_data (sequence_entry, endpoint_value) VALUES
  ('SAGGSAGGSASKDDKIVKVKVFTIKLKPNLEGLPKKVRELLEKLGIKEIKITFVSVFNPEDFSAGGSAGGSA [r18_127_TrMRF]', '3.23 kcal/mol'),
  ('SAGMKYTFKILVKADSPEEAIETAKKLVEKWLKENFPELPEGVKIKEIKVEPLPDDYYLVTITVEFDPESAG [r5_320_TrMRF]', '4.2 kcal/mol'),
  ('SAGGSAGGSAGGSKKKKIIIVVPKEELSEEQIKALKDLGYEIEIVEVEKKPVKVKKKKKSAGGSAGGSAGGS [r4_294_TrROS_Hall]', '0.62 kcal/mol');

Switching to the query record.
Which folding stability dG unfold reading was recorded for the sequence MNIPLKEILDKAKAEGKPVVFPDGTKTLSFEPGGKATIEKPVEVPGKPGVPLETKTYTIDINEDGSVTVNDS [r1_284_JUSTAS] ?
-0.875 kcal/mol

----------
Assay: folding stability dG unfold (combined trypsin and chymotrypsin); higher = more stable
measured endpoint: folding stability dG unfold

Consider the reported folding stability dG unfold for these sequences:
INSERT INTO measurements (sequence_entry, endpoint_value) VALUES
  ('SAGGSAGGDNWYHITIFRMKIKEVEPRKDPDGEKEPQFNFKIKEVVTIPIPPNDPEKLKDALGASAGGSAGG [r6_738_TrROS]', '1.37 kcal/mol'),
  ('SAGGMLRVTATVGYAPDDPAVELAKKIAEALTPPGMKVRMKAKVTPLADGTYRIDIEVEIRPPGEPGSAGGS [r16_128_TrMRF]', '3.27 kcal/mol'),
  ('SAGGSAGGSMLRVEVTLENGEKIEVEIEVPPGEELTLDEILAELKEKYPDLKVTEIKIEFLEPSAGGSAGGS [r12_262_TrROS_Hall]', '3.27 kcal/mol');

Switching to the query record.
Which folding stability dG unfold reading was recorded for the sequence SAGGKTIEIEVKVPPGMTEEEVAKKLAEELAKELEKKTGKEIKIEIEKVEKLPNGERKVRIKIEVKPSAGGS [r8_156_TrROS_Hall] ?
1.74 kcal/mol

----------
Quick reference for folding stability dG unfold among some sequences
Test: folding stability dG unfold from trypsin proteolysis; higher = more stable
Write it as a number; the unit kcal/mol goes unstated.

INSERT INTO measurements (sequence_entry, measured_endpoint, uom, endpoint_value) VALUES
  ('SKPVLVKVKIVTKNKNGKKIEKELVIEMSEEDLEKLLEELLNDPNLKDVEKIEIEVVDAETGEVYTFTFPSA [r9_97_TrROS_Hall]', 'folding stability dG unfold', 'kcal/mol', 2.01),
  ('SAKKITLTPPNGKKITITVHPDGSITITYEKGKITLPGHPGAKIKKATVDPKKGYITIIVNDKPIVIPISAG [r14_276_TrMRF]', 'folding stability dG unfold', 'kcal/mol', 1.66),
  ('SAGGSAGGSAPDVEVEPFTLPSGEEAVAFRLPDGSRVVLVGDKAVLFYKDGKVEEVPLEEILSAGGSAGGSA [r18_379_TrMRF]', 'folding stability dG unfold', 'kcal/mol', 1.46),
  ('SAGGSAGGSSVTRLIYLEDGTVLVVKLTPKPLVLPDGKPAFVLGFEVVEIRPVKDPKEALKALSAGGSAGGS [r12_915_TrMRF]', 'folding stability dG unfold', 'kcal/mol', 1.81),
  ('SAGGKKKVFLLENGELVVFDPETGKLEPVKLPEIPLTVEVEFEEGEGKIRVTVTNPAGLKLEFEFDFSAGGS [r16_453_TrMRF]', 'folding stability dG unfold', 'kcal/mol', 2.21);

Which folding stability dG unfold reading was recorded for the sequence SAGGSAGGMLLDEDGNLVVKIKLENGEEFEAKVTEIKDGKITVEVNGKKVEINAKDIELLPEDESAGGSAGG [r6_575_TrROS_Hall] ?
2.23

Which folding stability dG unfold reading was recorded for the sequence SAGMAKVKLKVEVYFPKTGKPVTMEIEVEGLTLEEIIEEVKKAIEAIGLKIDPDAPVKIVITDIEVYPGSAG [r5_230_TrMRF] ?
3.75
